The reported numbers originate from ChEMBL document CHEMBL3351473.

# IC50 listing for each entry below
Target: Sucrase-isomaltase, intestinal (Rattus norvegicus)
Sequence (P23739 1-1013 limits assumed): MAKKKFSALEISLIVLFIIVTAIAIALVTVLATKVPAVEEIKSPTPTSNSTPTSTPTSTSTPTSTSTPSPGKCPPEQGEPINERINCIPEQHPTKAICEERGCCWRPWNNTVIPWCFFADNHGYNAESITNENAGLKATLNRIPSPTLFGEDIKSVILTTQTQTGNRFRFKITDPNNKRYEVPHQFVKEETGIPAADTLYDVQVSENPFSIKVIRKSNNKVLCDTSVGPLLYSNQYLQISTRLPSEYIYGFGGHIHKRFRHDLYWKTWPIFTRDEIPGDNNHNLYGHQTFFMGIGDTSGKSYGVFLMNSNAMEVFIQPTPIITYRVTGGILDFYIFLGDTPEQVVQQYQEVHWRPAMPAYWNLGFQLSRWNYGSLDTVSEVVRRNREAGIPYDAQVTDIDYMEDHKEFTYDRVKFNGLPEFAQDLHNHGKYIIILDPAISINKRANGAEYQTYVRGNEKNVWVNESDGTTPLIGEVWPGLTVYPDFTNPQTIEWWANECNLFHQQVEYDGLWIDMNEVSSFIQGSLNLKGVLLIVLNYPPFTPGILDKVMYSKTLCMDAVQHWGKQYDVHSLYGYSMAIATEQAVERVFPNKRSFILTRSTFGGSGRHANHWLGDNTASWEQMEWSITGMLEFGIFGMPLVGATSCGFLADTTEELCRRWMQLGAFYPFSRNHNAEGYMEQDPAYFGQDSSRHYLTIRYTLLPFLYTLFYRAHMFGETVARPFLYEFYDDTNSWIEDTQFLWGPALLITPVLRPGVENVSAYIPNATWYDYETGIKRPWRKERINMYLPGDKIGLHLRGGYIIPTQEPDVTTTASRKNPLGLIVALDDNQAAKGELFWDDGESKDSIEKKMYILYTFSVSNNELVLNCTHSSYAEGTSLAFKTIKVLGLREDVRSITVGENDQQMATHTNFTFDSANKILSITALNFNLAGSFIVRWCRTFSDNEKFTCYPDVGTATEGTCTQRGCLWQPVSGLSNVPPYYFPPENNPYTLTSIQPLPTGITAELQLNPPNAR
Sequence (P23739 1014-1841 limits assumed): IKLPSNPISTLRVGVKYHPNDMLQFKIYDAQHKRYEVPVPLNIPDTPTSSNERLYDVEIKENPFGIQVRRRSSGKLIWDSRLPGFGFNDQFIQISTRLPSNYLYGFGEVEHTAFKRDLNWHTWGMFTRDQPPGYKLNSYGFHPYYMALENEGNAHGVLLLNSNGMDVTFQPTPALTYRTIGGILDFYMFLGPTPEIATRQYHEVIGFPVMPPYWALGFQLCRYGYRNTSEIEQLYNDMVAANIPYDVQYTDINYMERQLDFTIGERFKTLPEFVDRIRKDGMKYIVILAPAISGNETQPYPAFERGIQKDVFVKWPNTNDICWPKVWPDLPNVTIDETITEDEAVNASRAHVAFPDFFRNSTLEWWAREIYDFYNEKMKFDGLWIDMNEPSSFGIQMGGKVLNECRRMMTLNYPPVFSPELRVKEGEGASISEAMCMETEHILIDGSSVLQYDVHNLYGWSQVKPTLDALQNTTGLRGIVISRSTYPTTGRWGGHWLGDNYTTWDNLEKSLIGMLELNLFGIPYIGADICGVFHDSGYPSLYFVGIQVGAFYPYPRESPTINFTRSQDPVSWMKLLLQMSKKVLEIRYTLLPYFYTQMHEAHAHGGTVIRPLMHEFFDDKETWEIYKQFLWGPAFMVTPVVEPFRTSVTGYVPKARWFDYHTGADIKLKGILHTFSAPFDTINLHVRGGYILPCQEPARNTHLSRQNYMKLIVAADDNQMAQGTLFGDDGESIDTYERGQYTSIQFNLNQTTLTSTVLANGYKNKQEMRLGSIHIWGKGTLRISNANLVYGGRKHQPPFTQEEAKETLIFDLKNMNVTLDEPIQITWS
Assay: Inhibition of Wistar rat intestinal isomaltase assessed as inhibition of D-glucose release after 30 mins by spectrophotometry
Answer in nM, number only, no unit symbol.

Here's what some known entries look like.
# molSmiles, unitText, IC50
rows = [
    ("OC[C@@H]1N[C@@H](CCCCc2ccc(F)cc2)[C@H](O)[C@H]1O", "nM", 3000),
    ("OC[C@@H]1N[C@@H](CCCCc2cc(F)cc(F)c2)[C@H](O)[C@H]1O", "nM", 220),
    ("Cc1ccc(CCCC[C@@H]2N[C@@H](CO)[C@H](O)[C@H]2O)cc1", "nM", 630),
    ("COc1ccc(CCCC[C@@H]2N[C@@H](CO)[C@H](O)[C@H]2O)cc1", "nM", 1800),
]

Below: the item to evaluate.
Quick check: IC50 on Sucrase-isomaltase, intestinal (Rattus norvegicus), item OC[C@@H]1N[C@@H](CCCCc2ccc(O)cc2)[C@H](O)[C@H]1O ? 6000
